Assay: NCI Yeast Anticancer Drug Screen. Data for the bub3 strain (AID 167)
Settings: S. cerevisiae bub3 mutant strain, at 5.0 µM (retest, dose inferred, filed as 0.5), hits give high values
Compounds without any hit were thinned out: in the full panel of roughly 79,000, 15% have a hit.
Output Y for growth inhibition not less than 20%; output N otherwise.

Examples from the recorded data:
                                   molecule  answer_label
0       CNC(=S)N/N=C(/C)CCC/C(C)=N/NC(=S)NC             Y
1           COC(=O)c1ccccc1N=NNc1cccc(SC)c1             N
2            O=C(O)c1ccc2cc(Cl)c3ccccc3c2c1             N
3  O=S(=O)(c1ccccc1)N1CN2CN(C1)CN(S(=O)(=O)c1ccccc1)C2             Y
4  O=C1C(=C2CCCC2)CCC1CN1CCCCC1 (centres undefined)             N
5  c1ccc(-c2cc(C3CO3)c3ccccc3n2)cc1 (centres undefined)             N
6                 Brc1ccc(B2Nc3ccccc3N2)cc1             Y
7                Nc1cc2c(cc1N)-c1ccccc1C2=O             N

Prompt: Determine whether this molecule has growth inhibition no lower than 20%: O=[N+]([O-])[O][Sn]([O][Sn]([O][N+](=O)[O-])([c]1ccccc1)[c]1ccccc1)([c]1ccccc1)[c]1ccccc1
Completion: Y

Prompt: Determine whether this molecule has growth inhibition no lower than 20%: Cc1cc(C)c2[s+]snc2c1
Completion: N

Prompt: Determine whether this molecule has growth inhibition no lower than 20%: CCN1CCC(O)(c2ccc(Oc3ccc(C)cc3)cc2)C(C(=O)c2ccc(Oc3ccc(C)cc3)cc2)C1 (centres undefined)
Completion: N

Prompt: Determine whether this molecule has growth inhibition no lower than 20%: CCC(OC(C)=O)C1CC(C(C)C)CCC1C (centres undefined)
Completion: N

Prompt: Determine whether this molecule has growth inhibition no lower than 20%: CS(=O)(=O)O.[Ag]
Completion: N

Prompt: Determine whether this molecule has growth inhibition no lower than 20%: O=C(O)/C=C\C(=O)Nc1ccc2c(c1)Cc1cc(Cl)ccc1-2
Completion: N

Prompt: Determine whether this molecule has growth inhibition no lower than 20%: O=[N+]([O-])c1cccc2nc3ccccc3c(NCCCN3CCCCC3)c12
Completion: Y

====

Test: NCI Yeast Anticancer Drug Screen. Data for the rad50EPP+ strain (AID 151);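 also: 0% = growth of vehicle-treated control cultures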
Details: S. cerevisiae rad50 mutant strain, at 3.7 µM, hits give high values
This is part of a sample that, as a whole, favours compounds with a hit. Of some 79,000 tested, about 15% had one in any assay.
Items are presented alongside their recorded growth inhibition.
# unit: % | format: bare number

Use these answered entries as a reference point.
>>> print(df.to_string())
                                   molecule     endpoint_label  endpoint_value
0  O=[N+]([O-])c1ccc(C(c2c[nH]c3ccccc23)c2c[nH]c3ccccc23)cc1  growth inhibition               9
1  CC1CCC(C2=CSC3CCCCC3N2)CC1 (stereo not drawn)  growth inhibition             -14
2  O=C1C(=C2CCCC2)CCC1CN1CCCCC1 (stereo not drawn)  growth inhibition              36
3                  O=C(/C=C/c1ccsc1)c1cccs1  growth inhibition              11

Prompt: Sample CCOC(=O)/C(=C\c1cccc(C)c1)C(C)=O — what was its growth inhibition?
Completion: 31

Prompt: Sample O=C1C=CC(=Nc2cccc3c2-c2ccccc2C3=O)O1 — what was its growth inhibition?
Completion: 24

Prompt: Sample O=C(CCSC1=NCCCN1)c1ccc(F)cc1 — what was its growth inhibition?
Completion: -100

Prompt: Sample N#CCC(=O)N/N=C(\c1ccccc1)C(c1ccccc1)C1(O)C(=O)Nc2c(Cl)ccc(Cl)c21 (stereo not drawn) — what was its growth inhibition?
Completion: 10

Prompt: Sample O=C(NOC(=O)c1ccc([N+](=O)[O-])cc1)c1ccc(Cl)cc1 — what was its growth inhibition?
Completion: 23

Prompt: Sample COc1cccc(C(NC2=NCCC=N2)c2cc3c(cc2O)OCO3)c1O (stereo not drawn) — what was its growth inhibition?
Completion: -9

Prompt: Sample O=C1C(/C=C/c2ccc(Cl)cc2)=NNC2N1N=C1NC(=O)C3(NN12)c1ccccc1-c1ccccc13 (stereo not drawn) — what was its growth inhibition?
Completion: -3

Prompt: Sample CC(=O)Oc1ccc2c(c1)Cc1cc(N3C(=O)C=CC3=O)ccc1-2 — what was its growth inhibition?
Completion: 96

Prompt: Sample O=C1C=C(NCCc2cc(Br)c(O)c(Br)c2)C(=O)c2ncccc21 — what was its growth inhibition?
Completion: 38

Prompt: Sample COC(=O)c1ccccc1N=NNc1cccc(SC)c1 — what was its growth inhibition?
Completion: 21

Prompt: Sample Nc1cc2c(cc1N)-c1ccccc1C2=O — what was its growth inhibition?
Completion: 9

Prompt: Sample CC1=CC(C)(C)SC(SSSC2=NC(C)=CC(C)(C)S2)=N1 — what was its growth inhibition?
Completion: -1

Prompt: Sample CC1CCN(CCC(=O)c2ccc([N+](=O)[O-])cc2)CC1 — what was its growth inhibition?
Completion: 1

Prompt: Sample CCCNCC(=O)O[C@]1(CC)C(=O)OCc2c1cc1n(c2=O)Cc2cc3ccccc3nc2-1 — what was its growth inhibition?
Completion: 72

Prompt: Sample CCCCCCCCN1COCC(COc2ccccc2C)OC1 (stereo not drawn) — what was its growth inhibition?
Completion: -4

Prompt: Sample CCCCN(CCC#N)c1ccc(/C=C/c2ccnc3ccccc23)cc1 — what was its growth inhibition?
Completion: 7

Prompt: Sample O=[N+]([O-])c1cn[n+]([O-])c2ccccc12 — what was its growth inhibition?
Completion: 90

Prompt: Sample O=C1c2ccccc2-c2ccc(N=Cc3ccccc3)cc21 — what was its growth inhibition?
Completion: 24

Prompt: Sample CCCCCCCCCCCCCCCCCCN(C)C(COC)COP(=O)([O-])OCC[N+](C)(C)C (stereo not drawn) — what was its growth inhibition?
Completion: 63

Reference source: PubChem BioAssay (NCI)
